# PROTOCOL SUMMARY: Human HepG2 cell viability assay in 384 well format
# Type: toxicity, cell-based
# Design: dose 125 nL, time 70.5 hour; concentration not given beside the values
# TEST CONDITIONS: HepG2 cells, read-out: Inhibition
List of cytotoxicity at 70.5 h values.
Kindly answer with a numeric value in %, unit omitted.

Examples with their reported cytotoxicity at 70.5 h follow.
1) c1ccc2c(c1)C(NC1CCCC1)CC21CCNCC1 (stereo unspecified) = -1.32
2) CC(C)(C)C1SCC(=O)Nc2c1c(O)nn2C1CCCCC1 (stereo unspecified) = 8.92
3) Cc1ccc(C)c(S(=O)(=O)NCCOc2ccc3nnc(C)n3n2)c1 = 42.7
4) COCCn1cc(NC(=O)N(CCC(N)=O)Cc2ccccc2)cn1 = -14.4
5) Cc1nc(C2CCCN2CC(=O)Nc2c(C)nn(C)c2C)no1 (stereo unspecified) = -3.49

Return cytotoxicity at 70.5 h for the following compound: `CC1CCN(C[C@H]2CN3CC[C@H]2C[C@@H]3CNC(=O)c2ccco2)CC1` 19.1

Please give the documented cytotoxicity at 70.5 h of `CCCn1ccnc1-c1cccc(NC(=O)[C@H]2CCC(=O)N2)c1` 1.18

Quote cytotoxicity at 70.5 h reported for Cc1noc2ncc(C(=O)N(CC3CCOC3)C3CC3)cc12 (stereo unspecified) please. -6.78

Give the reported cytotoxicity at 70.5 h for this compound. `Cc1nn2cc(CNc3nccc(CCC(F)(F)F)n3)nc2s1` -9.54

Return cytotoxicity at 70.5 h (reported value) for this compound: CCCC1c2cccn2CCN1C(=O)Cn1cnc2sc(C)cc2c1=O (stereo unspecified) -12.3

Provide measured cytotoxicity at 70.5 h value, entry: `CC(C)N1CCC2(CC1)C[C@@H](O)[C@H](c1ccccc1)NC2=O` 9.43

###

# PROTOCOL SUMMARY: Human HepG2 cell viability assay in 384 well format
# Format: toxicity, cell-based
# Set-up: dose 125 nL, time 70.5 hour; concentration not given beside the values
# TEST CONDITIONS: HepG2 cells, read-out: Inhibition
MEASURED PARAMETER: cytotoxicity at 70.5 h (%)
Answer with a number only, understood to be in %.

Recorded results for 5 compounds are shown here.
1. COc1cccc(-c2cc(C(=O)N3N=C(C)CC3(O)C(F)(F)F)[nH]n2)c1 (centres undefined) = -16.8
2. CN1[C@H](CN2CCCC2)C[C@@H]2CN(C(=O)c3ccsc3)CC[C@@H]21 = 11.2
3. CCC1CCCCN1C(=O)Cn1nc(-c2cc(C)oc2C)cc(N)c1=O (centres undefined) = -3.58
4. COc1ccc(Cl)cc1C(=O)N1C[C@H](C(C)C)[C@@H](N)C1 = 3.26
5. CN(C)[C@@H]1CCN(c2ncccn2)[C@H]1Cc1ccccc1 = -6.06

// next entry
Quickly give me recorded cytotoxicity at 70.5 h for `CC(=O)c1ccc(S(=O)(=O)N2CCC(c3n[nH]c(C)n3)CC2)cc1` 24.3

###

# PROTOCOL SUMMARY: Human HepG2 cell viability assay in 384 well format
# Assay type: toxicity, cell-based
# Design: dose 125 nL, time 70.5 hour; concentration not given beside the values
# TEST CONDITIONS: HepG2 cells, read-out: Inhibition
MEASURED PARAMETER: cytotoxicity at 70.5 h (%)
// units = %; emit number, no label

For orientation, consider the following solved cases.
1. CC(C)N(CCCNC(=O)C1CCCN(C(N)=O)C1)S(C)(=O)=O (stereo unspecified) = -5.29
2. NC(=O)C1CN(C(=O)Cc2cccnc2)CCN(C2CCOCC2)C1 (stereo unspecified) = 0.12
3. CCN(C(=O)COC)C(c1cccnc1)c1cc(C)cc(C)c1 (stereo unspecified) = 13.8
4. CCc1nc2c(N3CCC4(CC3)CNC(=O)C4)ncnc2o1 = -3.31
5. COCc1ccc(OC)c(CNC2CCCNC2=O)c1 (stereo unspecified) = -8.49

Return cytotoxicity at 70.5 h for the following compound: `CN(Cc1cnn(C)c1)C(=O)c1ccc(Cl)c(N2CCNC2=O)c1` -22.2

Provenance of the data: ChEMBL document CHEMBL3507680
